Value source: ChEMBL document CHEMBL6087435

System: HEK293
Assay: Cytotoxicity against human HEK293 cells at 6.25 to 12.5 uM incubated for 24 hrs by Hoechst 33258 staining based flow cytometry
Assay type: toxicity, cell-based
Details: hek293, 24 h, dose 6.25-12.5 µM
property label: Activity

>>> result("CCOC(=O)[C@H](C)OP(=O)(OCC)Oc1ccc(COC(=O)OCOC(=O)[C@H]2[C@@H]3C[C@@H](O[C@@H]4O[C@H](C)[C@@H](O)[C@H](N)[C@@H]4O)/C=C/C=C/C=C/C=C/C=C/C=C/C=C/[C@H](C)[C@@H](O)[C@@H](C)[C@H](C)OC(=O)C[C@H](O)C[C@H](O)CC[C@@H](O)[C@H](O)C[C@H](O)C[C@](O)(C[C@@H]2O)O3)cc1 (some centres undefined)")
"Toxic"
>>> result("CCOC(=O)[C@H](C)OP(=O)(OCC)Oc1ccc(COC(=O)N[C@@H]2[C@H](O)[C@H](O[C@H]3/C=C/C=C/C=C/C=C/C=C/C=C/C=C/[C@H](C)[C@@H](O)[C@@H](C)[C@H](C)OC(=O)C[C@H](O)C[C@H](O)CC[C@@H](O)[C@H](O)C[C@H](O)C[C@]4(O)C[C@H](O)[C@@H](C(=O)O)[C@H](C3)O4)O[C@H](C)[C@H]2O)cc1 (some centres undefined)")
"Toxic"
>>> result("CC(C)OC(=O)OCOC(=O)[C@H]1[C@@H]2C[C@@H](O[C@@H]3O[C@H](C)[C@@H](O)[C@H](N)[C@@H]3O)/C=C/C=C/C=C/C=C/C=C/C=C/C=C/[C@H](C)[C@@H](O)[C@@H](C)[C@H](C)OC(=O)C[C@H](O)C[C@H](O)CC[C@@H](O)[C@H](O)C[C@H](O)C[C@](O)(C[C@@H]1O)O2")
"Toxic"
>>> result("CCOP(=O)(OCCOC(C)=O)Oc1ccc(COC(=O)N[C@@H]2[C@H](O)[C@H](O[C@H]3/C=C/C=C/C=C/C=C/C=C/C=C/C=C/[C@H](C)[C@@H](O)[C@@H](C)[C@H](C)OC(=O)C[C@H](O)C[C@H](O)CC[C@@H](O)[C@H](O)C[C@H](O)C[C@]4(O)C[C@H](O)[C@@H](C(=O)O)[C@H](C3)O4)O[C@H](C)[C@H]2O)cc1 (some centres undefined)")
"Toxic"

----------
Test: Stability in human plasma in PBS at pH 7.4 assessed as half life by HPLC analysis
Format: ADME, cell-free
property label: half-life (h)

>>> quantitative_readout("CCOC(=O)[C@H](C)OP(=O)(OCC)Oc1ccc(COC(=O)OCOC(=O)[C@H]2[C@@H]3C[C@@H](O[C@@H]4O[C@H](C)[C@@H](O)[C@H](N)[C@@H]4O)/C=C/C=C/C=C/C=C/C=C/C=C/C=C/[C@H](C)[C@@H](O)[C@@H](C)[C@H](C)OC(=O)C[C@H](O)C[C@H](O)CC[C@@H](O)[C@H](O)C[C@H](O)C[C@](O)(C[C@@H]2O)O3)cc1 (stereo partly specified)")
2.2

----------
System: Aspergillus fumigatus
Experiment: Antifungal activity against Aspergillus fumigatus assessed as inhibition of fungal growth by serial dilution assay
Format: functional
Reported MIC90 is given for each of the following compounds.
property label: MIC90

>>> result("CCOC(=O)[C@H](C)OP(=O)(OCC)Oc1ccc(COC(=O)OCOC(=O)[C@H]2[C@@H]3C[C@@H](O[C@@H]4O[C@H](C)[C@@H](O)[C@H](N)[C@@H]4O)/C=C/C=C/C=C/C=C/C=C/C=C/C=C/[C@H](C)[C@@H](O)[C@@H](C)[C@H](C)OC(=O)C[C@H](O)C[C@H](O)CC[C@@H](O)[C@H](O)C[C@H](O)C[C@](O)(C[C@@H]2O)O3)cc1 (some centres undefined)")
"2 µg/mL"
>>> result("CC(C)OC(=O)OCOC(=O)[C@H]1[C@@H]2C[C@@H](O[C@@H]3O[C@H](C)[C@@H](O)[C@H](N)[C@@H]3O)/C=C/C=C/C=C/C=C/C=C/C=C/C=C/[C@H](C)[C@@H](O)[C@@H](C)[C@H](C)OC(=O)C[C@H](O)C[C@H](O)CC[C@@H](O)[C@H](O)C[C@H](O)C[C@](O)(C[C@@H]1O)O2")
"> 16 µg/mL"
>>> result("CCOP(=O)(OCCOC(C)=O)Oc1ccc(COC(=O)N[C@@H]2[C@H](O)[C@H](O[C@H]3/C=C/C=C/C=C/C=C/C=C/C=C/C=C/[C@H](C)[C@@H](O)[C@@H](C)[C@H](C)OC(=O)C[C@H](O)C[C@H](O)CC[C@@H](O)[C@H](O)C[C@H](O)C[C@]4(O)C[C@H](O)[C@@H](C(=O)O)[C@H](C3)O4)O[C@H](C)[C@H]2O)cc1 (some centres undefined)")
"> 16 µg/mL"
>>> result("CCOC(=O)[C@H](C)OP(=O)(OCC)Oc1ccc(COC(=O)N[C@@H]2[C@H](O)[C@H](O[C@H]3/C=C/C=C/C=C/C=C/C=C/C=C/C=C/[C@H](C)[C@@H](O)[C@@H](C)[C@H](C)OC(=O)C[C@H](O)C[C@H](O)CC[C@@H](O)[C@H](O)C[C@H](O)C[C@]4(O)C[C@H](O)[C@@H](C(=O)O)[C@H](C3)O4)O[C@H](C)[C@H]2O)cc1 (some centres undefined)")
"> 16 µg/mL"
